Taken from paper PMC2824925.

- protocolDetails: Plasma pharmacokinetics of repeat-dose intravenous micafungin in young infants
- Format: in vivo, human
- experimentalConditions: human, plasma, iv, 7 mg/kg/day, CLss/wt, median (range), 7 mg/kg/day, IV, day 4, infants ≥ 1,000 g, n=6
*1 amine or outer side, *2 acyl side, *3 side chain or, on linkers, in order; H or OH if unused. Where a SMILES comes first, the peptide text is derived from it. Bridges are numbered along the chain shown (N, C = ends). [ ]: non-standard residue; d: D form. The star is where a group is joined. hTyr(3S-OH,4S-OH,3'-OSO3H) = N[C@H](C(=O)O)[C@H](O)[C@@H](O)c1ccc(O)c(OS(=O)(=O)O)c1; Orn(4R-OH,5R-OH) = O=C([C@H](C[C@@H](O)[C@@H](O)N[*:3])N[*:1])[*:2]; Pro(3S-OH,4S-Me) = C[C@H]1CN[C@H](C(=O)O)[C@H]1O; X1 = CCCCCOc1ccc(-c2cc(-c3ccc(C(=O)*)cc3)no2)cc1; Gln(3R-OH) = NC(=O)C[C@@H](O)[C@H](N)C(=O)O; Hyp = O=C(O)[C@@H]1C[C@@H](O)CN1
assayMetric: clearance (mL/min/kg)

- compound: "CCCCCOc1ccc(-c2cc(-c3ccc(C(=O)N[C@H]4C[C@@H](O)[C@@H](O)NC(=O)[C@@H]5[C@@H](O)[C@@H](C)CN5C(=O)[C@H]([C@H](O)CC(N)=O)NC(=O)[C@H]([C@H](O)[C@@H](O)c5ccc(O)c(OS(=O)(=O)O)c5)NC(=O)[C@@H]5C[C@@H](O)CN5C(=O)[C@H]([C@@H](C)O)NC4=O)cc3)no2)cc1 [micafungin] (X1-[Orn(4R-OH,5R-OH)]T[Hyp][hTyr(3S-OH,4S-OH,3'-OSO3H)][Gln(3R-OH)][Pro(3S-OH,4S-Me)]; lactam 1-C)"
  resultValue: 0.45
